The reported numbers originate from paper PMC12249917.

IC50: recorded values
Molecular target: electric eel acetylcholinesterase (eeAChE) (Electrophorus electricus, UniProt O42275)
Sequence (O42275 24-633): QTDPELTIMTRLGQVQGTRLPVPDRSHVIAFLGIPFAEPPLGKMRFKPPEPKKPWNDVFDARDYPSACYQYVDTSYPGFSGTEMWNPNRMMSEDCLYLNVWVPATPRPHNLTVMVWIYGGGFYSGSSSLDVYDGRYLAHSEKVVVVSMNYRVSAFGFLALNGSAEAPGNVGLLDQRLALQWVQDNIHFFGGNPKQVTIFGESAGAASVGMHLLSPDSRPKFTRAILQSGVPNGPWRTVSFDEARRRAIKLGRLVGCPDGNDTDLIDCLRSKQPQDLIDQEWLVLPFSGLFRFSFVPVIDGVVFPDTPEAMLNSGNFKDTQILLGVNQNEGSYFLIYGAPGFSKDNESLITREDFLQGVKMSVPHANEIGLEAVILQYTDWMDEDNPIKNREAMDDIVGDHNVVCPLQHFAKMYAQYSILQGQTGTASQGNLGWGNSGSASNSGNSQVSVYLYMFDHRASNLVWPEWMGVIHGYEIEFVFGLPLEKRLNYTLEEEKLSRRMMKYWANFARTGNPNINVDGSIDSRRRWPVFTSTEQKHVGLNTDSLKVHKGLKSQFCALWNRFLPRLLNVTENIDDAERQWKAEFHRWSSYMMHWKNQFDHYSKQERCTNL
Settings: read-out: IC50 (µM) eeAChE; mean ± S.D., three experiments in triplicate
Observable: IC50 (µM)

{"Molecule": "C[n+]1ccn(CC(O)c2ccccc2)[c]1[Au-][O]C(=O)[C@@H]1CCCN1C(=O)OC(C)(C)C (some centres unmarked)", "Bound Sign": "=", "Recorded Result": 18.4}
{"Molecule": "C[n+]1c(Cl)c(Cl)n(CC(O)c2ccccc2)[c]1[Ag-][O]C(=O)[C@@H]1CCCN1C(=O)OC(C)(C)C (some centres unmarked)", "Bound Sign": ">", "Recorded Result": 25}
{"Molecule": "C[n+]1c(-c2ccccc2)c(-c2ccccc2)n(CC(O)c2ccccc2)[c]1[Au-][O]C(=O)[C@@H]1CCCN1C(=O)OC(C)(C)C (some centres unmarked)", "Bound Sign": "=", "Recorded Result": 5.89}
{"Molecule": "C[n+]1c(-c2ccccc2)c(-c2ccccc2)n(CC(O)c2ccccc2)[c]1[Ag-][O]C(=O)[C@@H]1CCCN1C(=O)OC(C)(C)C (some centres unmarked)", "Bound Sign": ">", "Recorded Result": 25}
{"Molecule": "C[n+]1ccn(CC(O)c2ccccc2)[c]1[Ag-][O]C(=O)[C@@H]1CCCN1C(=O)OC(C)(C)C (some centres unmarked)", "Bound Sign": ">", "Recorded Result": 25}
{"Molecule": "C[n+]1c(Cl)c(Cl)n(CC(O)c2ccccc2)[c]1[Au-][O]C(=O)[C@@H]1CCCN1C(=O)OC(C)(C)C (some centres unmarked)", "Bound Sign": "=", "Recorded Result": 4.68}
{"Molecule": "C[n+]1[c]([Ag-][O]C(=O)[C@@H]2CCCN2C(=O)OC(C)(C)C)n(CC(O)c2ccccc2)c2ccccc21 (some centres unmarked)", "Bound Sign": "=", "Recorded Result": 14}
{"Molecule": "C[n+]1[c]([Au-][O]C(=O)[C@@H]2CCCN2C(=O)OC(C)(C)C)n(CC(O)c2ccccc2)c2ccccc21 (some centres unmarked)", "Bound Sign": "=", "Recorded Result": 3.72}
